Exercise: state measured melting point for each of the molecules provided.

The cases that follow already have their melting point on record.
* CC1NC(NS(=O)(=O)c2cccc3ccccc23)=Nc2c(Cl)cccc21 (stereo not shown) [PR 71] | 215 to 219 °C
* COc1cccc(S(=O)(=O)NC2=Nc3ccccc3CN2)c1 [PR 24] | 108 to 114 °C
* O=S(=O)(NC1=Nc2ccccc2CN1)c1ccc2c(Cl)cccc2c1 [PR 30] | 192 to 195 °C
* CC1NC(NS(=O)(=O)c2cccc3ccccc23)=Nc2ccccc21 (stereo not shown) [PR 67] | 169 to 174 °C
* O=S(=O)(NC1=Nc2ccccc2CN1)c1cc(Cl)cc(Cl)c1 [PR 23] | 208 to 211 °C
* CC1c2ccccc2N=C(NS(=O)(=O)c2cccc3ccccc23)N1C (stereo not shown) [PR 76] | 215 to 217 °C
* O=S(=O)(NC1=Nc2ccccc2CN1)c1ccccc1Cl [PR 18] | 217 to 222 °C
* O=S(=O)(NC1=Nc2c(Cl)cc(Cl)cc2CN1)c1cccc2ccccc12 [PR 51] | 214 to 219 °C
* O=S(=O)(NC1=Nc2ccccc2CN1)c1ccc(F)cc1 [PR 14] | 215 to 216 °C

API: the following record is the query input.
Looking up O=S(=O)(NC1=Nc2ccc(Cl)c(Cl)c2CN1)c1cccc2ccccc12 [PR 50] , I see its melting point listed as 233 to 240 °C

The origin of these recorded values is paper PMC11477289.
